- System: Rattus norvegicus
- Assay details: Anticonvulsant activity in albino Sprague-Dawley rat assessed as protection against maximal electroshock-induced seizures at 30 mg/kg, po measured after 4 hrs
- Type: functional
Active and inactive are the calls of the source. The rule behind the calls is not given here.
Value type: Activity

Use these answered entries as a reference point.
O=C1CC(c2ccccc2)C(=O)N1CN1CCOCC1 (racemic) : inactive
O=C1CC(c2cccc(Cl)c2)C(=O)N1CN1CCN(c2ncccn2)CC1 (racemic) : inactive
O=C1NC(=O)C(c2ccccc2)(c2ccccc2)N1 : 75%
O=C1CC(c2cccc(Cl)c2)C(=O)N1CN1CCOCC1 (racemic) : 50%
O=C1CC(c2ccccc2Cl)C(=O)N1CN1CCOCC1 (racemic) : inactive

Note to self: Activity recorded for O=C1CC(c2ccccc2Cl)C(=O)N1CN1CCC(Cc2ccccc2)CC1 (racemic) was inactive

Sure, the documented Activity for O=C1CC(c2ccccc2Cl)C(=O)N1CN1CCN(c2ncccn2)CC1 (racemic) is inactive

Summary for this molecule, O=C1CC(c2cccc(Cl)c2)C(=O)N1CN1CCC(Cc2ccccc2)CC1 (racemic) : Activity is inactive

Looking up O=C1CC(c2ccccc2)C(=O)N1CN1CCN(c2ncccn2)CC1 (racemic) , I found its Activity recorded as inactive
